Experiment: cAMP Responsive Elements (CRE) small molecule antagonists, cell-based qHTS assay (AID 1963591)
Conditions: CRE-bla HEK293T, beta-lactamase FRET ratio; series mostly up to 92.4 µM
Results filed as inconclusive are left out. Active and inactive are the calls of the source. Calls come from the whole dose curve; as a rule, active = well fitted inhibition curve with a large enough effect in the signal ratio in the repeat runs (not every such curve was filed as active); inconclusive = weak or mixed curves, or effect the other way; inactive = flat fitted curve, though single readings scatter; the % refers to the signal ratio.
quantity: activity change, negative = inhibition

Example results:
[[record]]
molecule = "CCCCC(CC)COC(=O)CCCCCCCC(=O)OCC(CC)CCCC (centres undefined)"
result = "inactive"

[[record]]
molecule = "O=C1NCCN1CCO"
result = "inactive"

[[record]]
molecule = "C[N+](C)(C)CCO"
result = "inactive"

[[record]]
molecule = "C=CC(C)(O)CCC=C(C)C (centres undefined)"
result = "inactive"

[[record]]
molecule = "O=[N+]([O-])c1ccccc1Nc1ccccc1"
result = "inactive"

[[record]]
molecule = "O=Cc1ccc(F)cc1"
result = "inactive"


# return recorded activity change, negative = inhibition for entry `O=C(O)CONC(=O)c1ccccc1` inactive

# return recorded activity change, negative = inhibition for entry `O=C(O)[C@H](O)[C@@H](O)[C@H](O[C@@H]1O[C@H](CO)[C@H](O)[C@H](O)[C@H]1O)[C@H](O)CO` inactive

# return recorded activity change, negative = inhibition for entry `C=COCCCC` inactive

# return recorded activity change, negative = inhibition for entry `IC(I)I` inactive

# return recorded activity change, negative = inhibition for entry `FC(F)(F)/C(=N\OCC1OCCO1)c1ccc(Cl)cc1` inactive
